# targetSystem: Mtb20SOG (Mycobacterium tuberculosis)
# Sequence (P9WHT9 58-291): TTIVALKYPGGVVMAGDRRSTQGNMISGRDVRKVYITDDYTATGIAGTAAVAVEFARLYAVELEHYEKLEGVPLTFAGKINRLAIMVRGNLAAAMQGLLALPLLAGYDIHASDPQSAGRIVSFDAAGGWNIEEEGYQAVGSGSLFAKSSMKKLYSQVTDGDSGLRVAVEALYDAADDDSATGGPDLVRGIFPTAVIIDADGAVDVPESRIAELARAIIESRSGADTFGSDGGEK
# assayExplanation: biochemical
pIC50: −log10 of the molar value.
Returns one of true (1) or false (0); true (1) when pIC50 is >= 6.

>>> categorylabel("CC(C)C(=O)CN[C@@H](CC(=O)N1CCCC[C@@H]1C)C(=O)N[C@@H](C)c1ncc(-c2ccc(F)cc2F)[nH]1 [CF-503151]")
"false (0)"
>>> categorylabel("CC(NC(=O)C(CC(=O)N1CCCCC1C)NC(=O)C1CC1C(C)C)c1nc(-c2ccc(F)cc2F)c[nH]1 (stereo not drawn) [CF-503475]")
"true (1)"
>>> categorylabel("C[C@H](NC(=O)[C@H](CC(=O)N1CCCC[C@@H]1C)NC(=O)C1CCC1)c1ncc(-c2ccc(F)cc2F)[nH]1 [CF-503146]")
"true (1)"
>>> categorylabel("C[C@H]1CCCCN1C(=O)C[C@H](NC(=O)CCC(C)(C)C)C(=O)NCc1nc2ccccc2[nH]1 [CF-503191]")
"true (1)"
>>> categorylabel("CC[C@H]1CCCCN1C(=O)C[C@H](NC(=O)CCC(C)C)C(=O)N[C@@H](C)c1nc2cc(F)c(F)cc2[nH]1 [CF-503229]")
"false (0)"
>>> categorylabel("Cc1cc(C(=O)N[C@@H](CC(=O)N2CCC[C@@H]2c2ccccc2)C(=O)N[C@@H](C)c2ncc(-c3ccccc3F)[nH]2)no1 [CF-503108]")
"true (1)"
>>> categorylabel("CC(NC(=O)C(CC(=O)N1CCCCC1C)NC(=O)OCc1ccccc1)c1nc2c(F)cccc2[nH]1 (stereo not drawn) [CF-503462]")
"true (1)"
>>> categorylabel("CC[C@H]1CCCCN1C(=O)C[C@H](NC(=O)CC(F)(F)F)C(=O)N[C@@H](C)c1nc2c(F)cccc2[nH]1 [CF-503319]")
"true (1)"
>>> categorylabel("C[C@H](NC(=O)[C@H](CC(=O)N1CCC[C@@H]1C)NC(=O)CCC(C)(C)C)c1nc2ccccc2[nH]1 [CF-503163]")
"false (0)"
>>> categorylabel("C[C@@H](NC(=O)[C@H](CC(=O)N1CCC[C@@H]1C)NC(=O)CCC(C)(C)C)c1nc2ccccc2[nH]1 [CF-503190]")
"false (0)"
>>> categorylabel("CC[C@H]1CCCCN1C(=O)C[C@H](Nc1nc2cc(C)ccc2o1)C(=O)N[C@@H](C)c1nc2c(F)cccc2[nH]1 [CF-503357]")
"true (1)"
>>> categorylabel("CC(C)CCC(=O)N[C@@H](CC(=O)N1CCOC[C@@H]1C)C(=O)N[C@@H](C)c1nc(-c2ccc(F)cc2F)c[nH]1 [CF-503210]")
"true (1)"
>>> categorylabel("Cc1cc(C(=O)N[C@@H](CC(=O)N2CCCC2)C(=O)N[C@@H](C)c2nc(-c3ccc(F)cc3F)c[nH]2)no1 [CF-503161]")
"false (0)"
>>> categorylabel("CC(C)CCS(=O)(=O)NC(CC(=O)N1CCCC1c1ccccc1)C(=O)NC(C)c1nc2ccccc2[nH]1 (stereo not drawn) [CF-503184]")
"false (0)"
>>> categorylabel("Cc1cc(C(=O)N[C@@H](CC(=O)N2CCCC[C@@H]2C)C(=O)N[C@@H](C)c2nc3c(F)cccc3[nH]2)no1 [CF-503274]")
"true (1)"
>>> categorylabel("CC[C@H]1CCCCN1C(=O)C[C@H](NC(=O)CC1CC1)C(=O)N[C@@H](C)c1nc2c(F)cccc2[nH]1 [CF-503318]")
"true (1)"
>>> categorylabel("CC(NC(=O)C(CC(=O)N1CCCCC1C)NC(=O)C1CC1c1ccccc1)c1nc2c(F)cccc2[nH]1 (stereo not drawn) [CF-503363]")
"true (1)"
>>> categorylabel("CC[C@H]1CCCCN1C(=O)C[C@H](NC(=O)CCN(C)C)C(=O)N[C@@H](C)c1nc2c(F)cccc2[nH]1 [CF-503356]")
"false (0)"
>>> categorylabel("CCC1CCCCN1C(=O)CC(NC(=O)C1CC1c1ccccc1)C(=O)NC(C)c1nc2c(F)cccc2[nH]1 (stereo not drawn)")
"true (1)"
>>> categorylabel("CC1CC(C(=O)N[C@@H](CC(=O)N2CCC[C@@H]2c2ccccc2)C(=O)NC(C)c2nc3ccccc3[nH]2)C1 (stereo partly drawn) [CF-503155]")
"true (1)"
>>> categorylabel("CC(C)CCC(=O)N[C@@H](CC(=O)N1CCCC[C@@H]1C(F)(F)F)C(=O)N[C@@H](C)c1nc(-c2ccc(F)cc2F)c[nH]1 [CF-503212]")
"true (1)"
